Molecular target: recombinant human KDM4A (Homo sapiens, UniProt O75164)
Sequence (O75164 1-359 limits assumed): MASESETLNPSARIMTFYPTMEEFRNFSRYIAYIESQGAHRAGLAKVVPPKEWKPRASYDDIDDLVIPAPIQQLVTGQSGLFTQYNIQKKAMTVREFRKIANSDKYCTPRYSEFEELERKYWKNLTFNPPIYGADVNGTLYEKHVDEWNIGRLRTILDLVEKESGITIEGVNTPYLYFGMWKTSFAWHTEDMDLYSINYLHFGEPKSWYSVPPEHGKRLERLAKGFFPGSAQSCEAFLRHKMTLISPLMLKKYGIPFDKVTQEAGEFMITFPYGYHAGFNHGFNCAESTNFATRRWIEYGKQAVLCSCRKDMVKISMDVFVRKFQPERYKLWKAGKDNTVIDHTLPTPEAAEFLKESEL
Assay: 14CO2 capture enzymatic assay (decarboxylation of [1-14C] αKG), KDM4A
Settings: 10 μM [1-14C] αKG, 90 μM non-labeled αKG, 50 μM peptide substrate, 37° C., 1 hour, final 1% DMSO
pIC50: −log10 of the molar value.
Reported pIC50 values follow for various compounds
measured-metric: pIC50

>>> print(df.to_string())
                  compound_structure_string  measured_metric  reported_value
0  Cc1cccc(-c2cc(C#N)c(O)c(C(=O)CCC(=O)O)n2)c1C            pIC50          < 4.40
1  N#Cc1cc(Cc2cc(Cl)ccc2Cl)nc(C(=O)CCC(=O)O)c1O            pIC50            4.44
2  Cc1ccccc1-c1cc(C#N)c(O)c(C(=O)CCC(=O)O)n1            pIC50          < 4.40
